Where do the numbers come from? From ChEMBL document CHEMBL5723379.

- target: Acid ceramidase (Homo sapiens)
- Sequence (Q13510 22-142 limits assumed): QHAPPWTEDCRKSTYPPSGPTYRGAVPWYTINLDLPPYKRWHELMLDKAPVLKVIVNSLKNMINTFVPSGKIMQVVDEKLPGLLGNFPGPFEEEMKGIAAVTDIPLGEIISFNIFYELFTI
- Sequence (Q13510 143-395 limits assumed): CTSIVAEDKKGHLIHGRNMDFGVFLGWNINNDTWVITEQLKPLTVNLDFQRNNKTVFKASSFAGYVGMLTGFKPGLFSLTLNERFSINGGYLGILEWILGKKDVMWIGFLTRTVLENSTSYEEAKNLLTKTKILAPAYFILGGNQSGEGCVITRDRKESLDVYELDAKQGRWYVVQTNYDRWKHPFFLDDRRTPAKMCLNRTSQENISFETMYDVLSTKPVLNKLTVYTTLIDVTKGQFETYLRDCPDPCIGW
- assay: Affinity On-target Cellular interaction: (Inhibition of ASAH1 in A375 cell lysates overexpressing ASAH1) EUB0002722a ASAH1
- Format: functional, subcellular, A-375
- Set-up: mode of action Inhibitor, recommended concentration 1 uM
pKi: −log10 of the molar value.
quantity: pKi

> print(dat)
                                smiles.text  obs.value
1  CCCCCCCCCCCCC/C=C/[C@@H](O)[C@H](CO)NC(=O)CBr       7.53

* * *

- target: Peroxisome proliferator-activated receptor alpha (Homo sapiens, UniProt Q07869)
- Sequence (Q07869 whole entry): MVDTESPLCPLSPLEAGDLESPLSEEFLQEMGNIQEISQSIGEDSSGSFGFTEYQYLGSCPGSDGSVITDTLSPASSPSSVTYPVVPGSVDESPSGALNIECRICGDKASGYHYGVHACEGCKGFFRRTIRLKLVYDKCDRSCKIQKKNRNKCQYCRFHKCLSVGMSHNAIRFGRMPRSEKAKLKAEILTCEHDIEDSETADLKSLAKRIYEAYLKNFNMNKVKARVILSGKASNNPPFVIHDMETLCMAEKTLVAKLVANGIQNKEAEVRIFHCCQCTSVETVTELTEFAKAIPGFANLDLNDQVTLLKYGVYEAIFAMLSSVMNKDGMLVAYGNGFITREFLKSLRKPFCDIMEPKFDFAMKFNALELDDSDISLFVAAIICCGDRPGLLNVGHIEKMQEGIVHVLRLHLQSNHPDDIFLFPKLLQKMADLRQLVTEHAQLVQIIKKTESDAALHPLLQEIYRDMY
- assay: Affinity On-target Cellular interaction: (Reporter gene assay (HEK293T cells)) EUB0001150a PPARA
quantity: IC50 (µM)

> print(dat)
                                smiles.text  quantity  readout.units  obs.value
1  COC(=O)c1sccc1S(=O)(=O)Nc1ccc(Nc2ccccc2)cc1OC      IC50             µM        6.1
